Test: Tissue residue depletion in goats (LC-MS/MS)
Assay type: in vivo, goats (Capra hircus)
Conditions: both sexes, Boaer-cross, goat, intramuscular, 20 mg/kg bw; kidney, 0.5 days after last dose, i.m., mean ± SD, 4 goats; read-out: Tissue concentration FF
recorded metric: concentration at 0.5 days (ng/g)
Could you give me the number in ng/g? Just the number is fine.

# get_value(readout='concentration at 0.5 days', item= CS(=O)(=O)c1ccc([C@@H](O)[C@@H](CF)NC(=O)C(Cl)Cl)cc1 [FF] )
2260

* * *

Assay: Tissue residue depletion in goats (LC-MS/MS)
Format: in vivo, goats (Capra hircus)
Details: both sexes, Boaer-cross, goat (Capra hircus), intramuscular, 20 mg FF/kg bw; liver, 3 days after last dose, i.m., mean ± SD, 4 goats
recorded metric: concentration at 3 days after last dose

Looking for the measured concentration at 3 days after last dose of CS(=O)(=O)c1ccc([C@@H](O)[C@@H](CF)NC(=O)C(Cl)Cl)cc1 , can you help?
936 ng/g

* * *

Experiment: Tissue residue depletion in goats (LC-MS/MS)
Format: in vivo, goats (Capra hircus)
Settings: both sexes, Boaer-cross, goat, intramuscular, 20 mg/kg bw; muscle, 7 days after last dose, i.m., mean ± SD, 4 goats; read-out: Tissue concentration FF
recorded metric: concentration at 7 days (ng/g)
Reply with just the number (in ng/g).

Requested field: concentration at 7 days. Item: CS(=O)(=O)c1ccc([C@@H](O)[C@@H](CF)NC(=O)C(Cl)Cl)cc1
162

* * *

Experiment: Tissue residue depletion in goats (LC-MS/MS)
Format: in vivo, goats (Capra hircus)
Details: both sexes, Boaer-cross, goat, intramuscular, 20 mg/kg bw; muscle, 14 days after last dose, i.m., mean ± SD, 4 goats; read-out: Tissue concentration FF
Protocol: In this study, a total of 54 Boaer-cross goats (Capra hircus) of both sexes, about 8 months old, were selected, weighing 28–36 kg. During the 1st week of acclimatization, all animals were raised in the usual way, with free access to feed and water. […] Throughout the experiment, all goats had ad libitum access to feed and water without antibiotics. […] The volume of the treatment solution was calculated individually for each goat to provide a dose equivalent to 20 mg FF/kg bw and 10 mg DOX/kg bw. […]
recorded metric: concentration at 14 days (ng/g)
The response must be a number in ng/g with no trailing unit.

Which concentration at 14 days value belongs to CS(=O)(=O)c1ccc([C@@H](O)[C@@H](CF)NC(=O)C(Cl)Cl)cc1 [FF] ?
48.6

* * *

Experiment: Tissue residue depletion in goats (LC-MS/MS)
Format: in vivo, goats (Capra hircus)
Settings: both sexes, Boaer-cross, goat, intramuscular, 20 mg/kg bw; muscle, 0.5 days after last dose, i.m., mean ± SD, 4 goats; read-out: Tissue concentration FF
recorded metric: concentration at 0.5 days (ng/g)
Express the result in ng/g but write the number alone.

concentration at 0.5 days lookup needed for CS(=O)(=O)c1ccc([C@@H](O)[C@@H](CF)NC(=O)C(Cl)Cl)cc1 , thanks.
1760

* * *

Test: Tissue residue depletion in goats (LC-MS/MS)
Format: in vivo, goats (Capra hircus)
Details: both sexes, Boaer-cross, goat, intramuscular, 20 mg/kg bw; kidney, 14 days after last dose, i.m., mean ± SD, 4 goats; read-out: Tissue concentration FF
recorded metric: concentration at 14 days (ng/g)
Express the result in ng/g but write the number alone.

Would you kindly share the measured concentration at 14 days for CS(=O)(=O)c1ccc([C@@H](O)[C@@H](CF)NC(=O)C(Cl)Cl)cc1 [FF] ?
131
